- ASSAY_SYSTEM: human GLP-1 receptor (human, UniProt P43220 24-463)
- METHOD_DESCRIPTION: cell-based or functional assay
PARAMETER: GLP-1 receptor potency [EC50] pM 1% HSA (pM)
Express your answer in pM, writing the number without its unit.

Solved entries (count: 4):
[8G, 22E, 36G]GLP-1(7-37)-(GAQP)x2, … (ligand, Cys of the spacer (residue 40 of the chain) S-alkylated with substituent Chem. 7) HGEGTFTSDVSSYLEEQAAKEFIAWLVKGGGGAQPGAQPCGAQPGAQPAHPIPDSSPLLQFGGQVRQRYLYTDDAQQTEAHLEIREDGTVGGAADQSPESLLQLKALKPGVIQILGVKTSRFLCQRPDGALYGSLHFDPEACSFRELLLEDGYNVYQSEAHGLPLHLPGQKSPHRDPAPRGPARFLPLPGLPPALPEPPGILAPQPPDVGSSDPLSLVGGSQGRSPSYAS = 394
S{Beta-26}-[2-[2-[[2-[2-[2-[[2-[2-[2-[[(4S)-4-carboxy-4-(17-carboxyheptadecanoyl-amino)butanoyl]amino]ethoxy]ethoxy]acetyl]amino]ethoxy]ethoxy]acetyl]amino]-eth … (ligand, Cys26 of the GLP-1 part (GLP-1(7-37) numbering; residue 20 of the chain) and Cys180 of the FGF21 part (FGF21(1-181) numbering; residue 228 of the chain) each S-alkylated with substituent Chem. 7) HGEGTFTSDVSSYLEEQAACEFIAWLVKGGGGAQPGAQPGAQPGAQPAHPIPDSSPLLQFGGQVRQRYLYTDDAQQTEAHLEIREDGTVGGAADQSPESLLQLKALKPGVIQILGVKTSRFLCQRPDGALYGSLHFDPEACSFRELLLEDGYNVYQSEAHGLPLHLPGQKSPHRDPAPRGPARFLPLPGLPPALPEPPGILAPQPPDVGSSDPLSLVGPSQGRSPSYCS = 4410
S{Beta-27}-[2-[2-[[2-[2-[2-[[2-[2-[2-[[(4S)-4-carboxy-4-(17-carboxyheptadecanoyl-amino)butanoyl]amino]ethoxy]ethoxy]acetyl]amino]ethoxy]ethoxy]acetyl]amino]-eth … (ligand, Cys27 of the GLP-1 part (GLP-1(7-37) numbering; residue 21 of the chain) S-alkylated with substituent Chem. 7) HGEGTFTSDVSSYLEEQAAKCFIAWLVKGGGGAQPGAQPGAQPGAQPAHPIPDSSPLLQFGGQVRQRYLYTDDAQQTEAHLEIREDGTVGGAADQSPESLLQLKALKPGVIQILGVKTSRFLCQRPDGALYGSLHFDPEACSFRELLLEDGYNVYQSEAHGLPLHLPGQKSPHRDPAPRGPARFLPLPGLPPALPEPPGILAPQPPDVGSSDPLSLVGGSQGRSPSYAS = 75.4
[8G, 22E, 26R, 36G]GLP-1(7-37)-(GAQP)x2, … (ligand, Cys of the spacer (residue 40 of the chain) S-alkylated with substituent Chem. 7) HGEGTFTSDVSSYLEEQAAREFIAWLVKGGGGAQPGAQPCGAQPAHPIPDSSPLLQFGGQVRQRYLYTDDAQQTEAHLEIREDGTVGGAADQSPESLLQLKALKPGVIQILGVKTSRFLCQRPDGALYGSLHFDPEACSFRELLLEDGYNVYQSEAHGLPLHLPGQKSPHRDPAPRGPARFLPLPGLPPALPEPPGILAPQPPDVGSSDPLSLVGGSQGRSPSYAS = 222

# context switch: different binder, same GLP-1 receptor potency [EC50] pM 1% HSA
Query :: Retrieve GLP-1 receptor potency [EC50] pM 1% HSA measured for S{Beta-27}-[2-[2-[[2-[2-[2-[[2-[2-[2-[[(4S)-4-carboxy-4-(17-carboxyheptadecanoyl-amino)butanoyl]amino]ethoxy]ethoxy]acetyl]amino]ethoxy]ethoxy]acetyl]amino]-eth … (ligand, Cys27 of the GLP-1 part (GLP-1(7-37) numbering; residue 21 of the chain) S-alkylated with substituent Chem. 7) HGEGTFTSDVSSYLEEQAAKCFIAWLVKGGGGAQPGAQPGAQPGAQPGAQPGAQPGAQPGAQPAHPIPDSSPLLQFGGQVRQRYLYTDDAQQTEAHLEIREDGTVGGAADQSPESLLQLKALKPGVIQILGVKTSRFLCQRPDGALYGSLHFDPEACSFRELLLEDGYNVYQSEAHGLPLHLPGQKSPHRDPAPRGPARFLPLPGLPPALPEPPGILAPQPPDVGSSDPLSLVGGSQGRSPSYAS and print it.
Result :: 106
